# Assay Notes: Lipophilicity, logP in n-octanol/PBS of radiolabeled PSMA inhibitors
# Type: physicochemical
# Condition Description: pH 7.4; distribution coefficient in n-octanol/PBS, radiolabeled inhibitor; mean ± SD (n = 6); read-out: logP
*1 amine or outer side, *2 acyl side, *3 side chain or, on linkers, in order; H or OH if unused. Where a SMILES comes first, the peptide text is derived from it. Side-chain parts run from the residue outwards. [ ]: non-standard residue; d: D form. The star is where a group is joined. ξ: configuration not given here. ξOrn(Nα-γGlu(Nα-CO-Glu)) = O=C(O)CC[C@H](NC(=O)N[C@@H](CCC(=O)NC(CCCN*)C(=O)O)C(=O)O)C(=O)O; DOTAGA = O=C(O)CN1CCN(CC(=O)O)CCN(C(CCC(=O)*)C(=O)O)CCN(CC(=O)O)CC1; X1 = O=C(c1ccc([N+](=O)[O-])cc1[N+](=O)[O-])*; d2Nal = N[C@H](Cc1ccc2ccccc2c1)C(=O)O; Suc = O=C(CCC(=O)[*:2])[*:1]; Dap = NC[C@H](N)C(=O)O
Listing: logP of selected molecules

INSERT INTO results (molecule, property_measured, test_value) VALUES
  ('O=C(O)CC[C@H](NC(=O)N[C@@H](CCC(=O)NC(CCCNC(=O)CCC(=O)NCCCC[C@@H](NC(=O)[C@@H](Cc1ccc2ccccc2c1)NC(=O)[C@@H](Cc1ccc(O)cc1)NC(=O)CCC(C(=O)O)N1CCN(CC(=O)O)CCN(CC(=O)O)CCN(CC(=O)O)CC1)C(=O)O)C(=O)O)C(=O)O)C(=O)O (stereo partly shown) [PSMA-46, DOTAGA-y-2-nal-k(Suc-N^5-orn-C^4-EuE)]', 'logP', -4.21),
  ('Nc1ccc(C[C@H](NC(=O)CCC(C(=O)O)N2CCN(CC(=O)O)CCN(CC(=O)O)CCN(CC(=O)O)CC2)C(=O)N[C@H](Cc2ccc(O)cc2)C(=O)N[C@H](Cc2ccc3ccccc3c2)C(=O)N[C@H](CCCCNC(=O)[C@@H](CC(=O)NCCCC(NC(=O)CC[C@H](NC(=O)N[C@@H](CCC(=O)O)C(=O)O)C(=O)O)C(=O)O)NC(=O)c2ccc([N+](=O)[O-])cc2[N+](=O)[O-])C(=O)O)cc1 (stereo partly shown) [PSMA-61]', 'logP', -4.07),
  ('O=C(O)CC[C@H](NC(=O)N[C@@H](CCC(=O)NC(CCCNC(=O)CCC(=O)NCCCC[C@@H](NC(=O)[C@@H](Cc1ccc2ccccc2c1)NC(=O)[C@@H](Cc1ccc(O)cc1)NC(=O)[C@H](CNC(=O)CCC(C(=O)O)N1CCN(CC(=O)O)CCN(CC(=O)O)CCN(CC(=O)O)CC1)NC(=O)c1ccc([N+](=O)[O-])cc1[N+](=O)[O-])C(=O)O)C(=O)O)C(=O)O)C(=O)O (stereo partly shown) [PSMA-53] (X1-[Dap](DOTAGA)[dY][d2Nal][dK]([Suc-ξOrn(Nα-γGlu(Nα-CO-Glu))])-OH)', 'logP', -4.08);

Consider the record given below.
Using the record for O=C(O)CC[C@H](NC(=O)N[C@@H](CCCCNC(=O)CCCCCCC(=O)NCCCC[C@@H](NC(=O)[C@@H](Cc1ccccc1)NC(=O)[C@@H](Cc1ccc(O)c(I)c1)NC(=O)CCC(C(=O)O)N1CCN(CC(=O)O)CCN(CC(=O)O)CCN(CC(=O)O)CC1)C(=O)O)C(=O)O)C(=O)O (stereo partly shown) [PSMA I&T, DOTAGA-y(3-I)fk(Sub-KuE), reference compound] , report its logP. -4.12

---

# System Under Test: HSA (Homo sapiens)
# Construct: purchased Daicel Chemical Industries / Chiral Technologies Europe (Illkirch, France)
# Sequence (P02768 25-609): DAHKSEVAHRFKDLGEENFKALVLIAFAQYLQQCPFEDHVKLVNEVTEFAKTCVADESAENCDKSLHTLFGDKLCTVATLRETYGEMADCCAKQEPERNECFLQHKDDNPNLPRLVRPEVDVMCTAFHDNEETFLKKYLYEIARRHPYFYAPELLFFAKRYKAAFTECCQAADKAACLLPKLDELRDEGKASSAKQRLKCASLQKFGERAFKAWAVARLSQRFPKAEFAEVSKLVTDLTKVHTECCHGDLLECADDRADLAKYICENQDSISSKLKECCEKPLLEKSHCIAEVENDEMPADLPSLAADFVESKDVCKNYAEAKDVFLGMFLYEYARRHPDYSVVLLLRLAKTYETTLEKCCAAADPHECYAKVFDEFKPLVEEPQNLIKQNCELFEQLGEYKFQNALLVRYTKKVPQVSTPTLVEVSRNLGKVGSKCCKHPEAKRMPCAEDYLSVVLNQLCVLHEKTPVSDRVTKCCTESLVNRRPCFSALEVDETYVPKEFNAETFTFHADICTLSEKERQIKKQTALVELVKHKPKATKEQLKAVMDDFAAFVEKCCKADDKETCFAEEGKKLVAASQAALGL
# Assay Notes: HSA binding on Chiralpak HSA column
# Assay type: in vitro ADME
# Condition Description: after logarithmic plotting and calibration (n = 1)
*1 amine or outer side, *2 acyl side, *3 side chain or, on linkers, in order; H or OH if unused. Where a SMILES comes first, the peptide text is derived from it. Side-chain parts run from the residue outwards. [ ]: non-standard residue; d: D form. The star is where a group is joined. ξ: configuration not given here. ξOrn(Nα-γGlu(Nα-CO-Glu)) = O=C(O)CC[C@H](NC(=O)N[C@@H](CCC(=O)NC(CCCN*)C(=O)O)C(=O)O)C(=O)O; DOTAGA = O=C(O)CN1CCN(CC(=O)O)CCN(C(CCC(=O)*)C(=O)O)CCN(CC(=O)O)CC1; X1 = O=C(c1ccc([N+](=O)[O-])cc1[N+](=O)[O-])*; d2Nal = N[C@H](Cc1ccc2ccccc2c1)C(=O)O; Suc = O=C(CCC(=O)[*:2])[*:1]; Dap = NC[C@H](N)C(=O)O
Listing: HSA (albumin binding) of selected compounds
Answer with a number only, understood to be in %.

Use the examples below as a reference point.
INSERT INTO assay_data (compound, property_measured, test_value) VALUES
  ('O=C(O)CC[C@H](NC(=O)N[C@@H](CCCCNC(=O)[C@H](Cc1ccc2ccccc2c1)NC(=O)[C@H]1CC[C@H](CNC(=O)CN2CCN(CC(=O)O)CCN(CC(=O)O)CCN(CC(=O)O)CC2)CC1)C(=O)O)C(=O)O [PSMA-617, reference compound]', 'HSA (albumin binding)', 74.7),
  ('O=C(O)CC[C@H](NC(=O)N[C@@H](CCC(=O)NC(CCCNC(=O)CCC(=O)NCCCC[C@@H](NC(=O)[C@@H](Cc1ccc2ccccc2c1)NC(=O)[C@@H](Cc1ccc(O)cc1)NC(=O)[C@H](CNC(=O)CCC(C(=O)O)N1CCN(CC(=O)O)CCN(CC(=O)O)CCN(CC(=O)O)CC1)NC(=O)c1ccc([N+](=O)[O-])cc1[N+](=O)[O-])C(=O)O)C(=O)O)C(=O)O)C(=O)O (some centres unmarked) [PSMA-53] (X1-[Dap](DOTAGA)[dY][d2Nal][dK]([Suc-ξOrn(Nα-γGlu(Nα-CO-Glu))])-OH)', 'HSA (albumin binding)', 95.9),
  ('Nc1ccc(C[C@H](NC(=O)CCC(C(=O)O)N2CCN(CC(=O)O)CCN(CC(=O)O)CCN(CC(=O)O)CC2)C(=O)N[C@H](Cc2ccc(O)cc2)C(=O)N[C@H](Cc2ccc3ccccc3c2)C(=O)N[C@H](CCCCNC(=O)[C@@H](CC(=O)NCCCC(NC(=O)CC[C@H](NC(=O)N[C@@H](CCC(=O)O)C(=O)O)C(=O)O)C(=O)O)NC(=O)c2ccc([N+](=O)[O-])cc2[N+](=O)[O-])C(=O)O)cc1 (some centres unmarked) [PSMA-61]', 'HSA (albumin binding)', 63.3),
  ('O=C(O)CC[C@H](NC(=O)N[C@@H](CCCCNC(=O)CCCCC[C@H](NC(=O)c1ccc([N+](=O)[O-])cc1[N+](=O)[O-])C(=O)NCCCC[C@@H](NC(=O)[C@@H](Cc1ccccc1)NC(=O)[C@@H](Cc1ccc(O)c(I)c1)NC(=O)CCC(C(=O)O)N1CCN(CC(=O)O)CCN(CC(=O)O)CCN(CC(=O)O)CC1)C(=O)O)C(=O)O)C(=O)O (stereo partly drawn) [PSMA-36, DOTAGA-y(3-I)fk(L-Asu[KuE]-2,4-DNBA)]', 'HSA (albumin binding)', 82.5);

Using the record for O=C(O)CC[C@H](NC(=O)N[C@@H](CCC(=O)NC(CCCNC(=O)CCC(=O)NCCCC[C@@H](NC(=O)[C@@H](Cc1ccc2ccccc2c1)NC(=O)[C@@H](Cc1ccc(O)cc1)NC(=O)CCC(C(=O)O)N1CCN(CC(=O)O)CCN(CC(=O)O)CCN(CC(=O)O)CC1)C(=O)O)C(=O)O)C(=O)O)C(=O)O (some centres unmarked) [PSMA-46, DOTAGA-y-2-nal-k(Suc-N^5-orn-C^4-EuE)] , report its HSA (albumin binding). 57.7

---

# System Under Test: HSA (Homo sapiens)
# Construct: purchased Daicel Chemical Industries / Chiral Technologies Europe (Illkirch, France)
# Assay Notes: HSA binding on Chiralpak HSA column
# Assay type: in vitro ADME
# Condition Description: human, 0.5 mg/mL
# Protocol: HSA binding experiments were performed as previously described. […] For each run, 10 μL of the solution containing the inhibitor was injected into the RP-HPLC system and the retention time measured. […] Non-linear regression was established with OriginPro 2016G.
Property Measured: HSA (albumin binding) (%)
Answer with a number only, understood to be in %.

Using the record for O=C(O)CC[C@H](NC(=O)N[C@@H](CCC(=O)NC(CCCNC(=O)C[C@@H](NC(=O)c1cc(C(=O)O)cc(C(=O)O)c1)C(=O)NCCCC[C@@H](NC(=O)[C@@H](Cc1ccc2ccccc2c1)NC(=O)[C@@H](Cc1ccc(O)cc1)NC(=O)[C@H](Cc1ccc2ccccc2c1)NC(=O)CCC(C(=O)O)N1CCN(CC(=O)O)CCN(CC(=O)O)CCN(CC(=O)O)CC1)C(=O)O)C(=O)O)C(=O)O)C(=O)O (stereo partly shown) , report its HSA (albumin binding). 98.2
